experiment: Mean residence time in mouse at 1 mg/kg, po administered as cassette dose; assay type: ADME, organism-based; settings: in vivo
parameter: MRT (h)
Kindly answer with a numeric value in h, unit omitted.

**Query** Entry OCc1noc(-c2ccc(N3CCC4(COc5ccccc54)C3)nn2)n1 (stereo unspecified) has what MRT?
**Result** 2.3

###

assay: Stability in mouse liver microsomes; assay type: ADME, microsome; settings: read-out: Stability
parameter: microsomal CLint (µL/min/mg)
Kindly answer with a numeric value in µL/min/mg, unit omitted.

**Query** Entry OCc1noc(-c2ccc(N3CCC(c4ccc(C(F)(F)F)cc4)(C(F)(F)F)CC3)nn2)n1 has what microsomal CLint?
**Result** 19

**Query** Follow-up entry: CC(C)(C)c1ccc(C2(C#N)CCN(c3ccc(-c4nc(CO)no4)nn3)CC2)cc1
**Result** 119

**Query** Follow-up entry: N#CC1(c2ccc(C(F)(F)F)cc2)CCN(c2ccc(-c3nc(CO)no3)nn2)CC1
**Result** 33

**Query** Follow-up entry: N#CC1(c2ccc([N+](=O)[O-])cc2)CCN(c2ccc(-c3nc(CO)no3)nn2)CC1
**Result** 11

**Query** Follow-up entry: N#CC1(c2ccc(OC(F)(F)F)cc2)CCN(c2ccc(-c3nc(CO)no3)nn2)CC1
**Result** 35

**Query** Follow-up entry: OCc1nnc(-c2ccc(N3CCC(c4ccc(C(F)(F)F)cc4)(C(F)(F)F)CC3)nn2)o1
**Result** 33

**Query** Follow-up entry: OCc1nnc(-c2ccc(N3CCC(c4ccc(C(F)(F)F)cc4)(C(F)(F)F)CC3)nn2)s1
**Result** 1

**Query** Follow-up entry: N#CC1(c2ccc(S(F)(F)(F)(F)F)cc2)CCN(c2ccc(-c3nc(CO)no3)nn2)CC1
**Result** 24

**Query** Follow-up entry: N#CC1(c2ccc(Cl)cc2)CCN(c2ccc(-c3nc(CO)no3)nn2)CC1
**Result** 39
